Recorded Ki for the following compounds
# test target: MASP-2 (Homo sapiens (Human))
# Sequence (O00187 16-686): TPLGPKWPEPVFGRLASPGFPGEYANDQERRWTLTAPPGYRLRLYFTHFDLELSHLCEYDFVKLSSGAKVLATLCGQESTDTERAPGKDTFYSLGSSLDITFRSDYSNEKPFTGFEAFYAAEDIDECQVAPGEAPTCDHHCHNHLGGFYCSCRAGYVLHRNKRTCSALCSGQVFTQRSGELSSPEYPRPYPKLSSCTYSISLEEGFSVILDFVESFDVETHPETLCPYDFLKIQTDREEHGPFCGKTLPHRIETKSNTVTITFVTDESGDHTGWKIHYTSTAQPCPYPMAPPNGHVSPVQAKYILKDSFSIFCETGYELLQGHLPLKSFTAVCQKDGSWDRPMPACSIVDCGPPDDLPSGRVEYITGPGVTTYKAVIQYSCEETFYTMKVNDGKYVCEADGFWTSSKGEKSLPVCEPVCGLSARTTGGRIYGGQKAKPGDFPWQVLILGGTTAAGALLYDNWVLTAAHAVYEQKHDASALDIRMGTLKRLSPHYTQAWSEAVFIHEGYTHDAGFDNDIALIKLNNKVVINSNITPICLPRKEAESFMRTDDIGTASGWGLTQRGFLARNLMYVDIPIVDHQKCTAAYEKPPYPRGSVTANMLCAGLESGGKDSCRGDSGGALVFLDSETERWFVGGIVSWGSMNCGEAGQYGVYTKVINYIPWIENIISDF

CCOC(=O)c1ccc2c(c1)C1C=CCC1C(C(=O)O)N2 (centres unmarked) [compound 13]
25 to 100 µM

We next turn to a different compound, shown below.
Bench note: what Ki did COc1ccccc1C1=N/C(=C\c2cc(OC)c(OC)c(OC)c2)C(=O)O1 [compound 4] show?
< 10 µM

###

# test target: MASP-2 (CCP1-CCP2-SP) (Homo sapiens (Human), UniProt O00187)
# Sequence (O00187 445-686): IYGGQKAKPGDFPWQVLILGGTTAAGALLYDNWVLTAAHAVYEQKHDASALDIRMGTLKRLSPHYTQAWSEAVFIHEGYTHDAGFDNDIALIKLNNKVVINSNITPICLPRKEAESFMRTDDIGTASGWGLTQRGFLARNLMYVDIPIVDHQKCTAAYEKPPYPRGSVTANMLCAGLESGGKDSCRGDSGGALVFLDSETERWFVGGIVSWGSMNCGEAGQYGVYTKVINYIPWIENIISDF
# protocol text: biochemical
# Type: biochemical
Where a name gives a salt, the structure may show the parent alone.
readout name: Ki

Quick check: Ki of C[C@H](NC(=O)[C@H]1C[C@H](c2ccccc2)CN1)C(=O)NCc1cc(Br)cc2cn[nH]c12 ?
500 to 2500 nM

Ki lookup needed for Nc1ccc2[nH]c(Cc3nc4cc(N)ccc4[nH]3)nc2c1 , thanks.
> 25000 nM

I'd like to know its Ki. The compound in question is C[C@H](NC(=O)[C@@H](CCc1ccccc1)NCc1ccccc1N1CCN(C)CC1)C(=O)NCc1ccc(C(=N)N)cc1
500 to 2500 nM

I'd like to know its Ki. The compound in question is C[C@H](NC(=O)[C@H]1C[C@H](c2ccccc2)CN1)C(=O)NCc1cnc2[nH]ccc2c1 [compound 1311, Dihydrochloride]
2500 to 10000 nM

Fill in the blank: the reported Ki of Cc1ccnc(-c2nc3cc(C(=N)N)ccc3[nH]2)c1 [compound 2005, dihydrochloride] is ____.
> 25000 nM

Which value of Ki has been reported for Cc1cccc(-c2nc3cc(C(=N)N)ccc3[nH]2)n1 in the records?
> 25000 nM

###

A collection of compounds and their measured Ki
# test target: UniProt:P00734
# protocol text: Enzymatic assay for thrombin (Boc-VPR-AMC substrate)
# Format: biochemical
# assay context: read-out: Thrombin Ki
Counter-ions that a name gives are not always drawn.

# count of solved cases: 5
C[C@H](NC(=O)[C@H](N)CCc1cccc(F)c1)C(=O)NCc1ccc(C(=N)N)cc1
< 0.5 µM
C[C@H](NC(=O)[C@H]1C[C@H](Cc2ccccc2)CN1)C(=O)NCc1cnc2[nH]cc(Cl)c2c1 [compound 1334, Di-hydrochloride]
< 0.5 µM
C[C@H](NC(=O)[C@H](N)CCc1cc(F)cc(F)c1)C(=O)NCc1ccc(C(=N)N)cc1
< 0.5 µM
C[C@H](NC(=O)[C@H]1C[C@H](c2ccccc2)CN1)C(=O)NCc1cc(Cl)cc(Cl)c1O [compound 1395, Trifluoroacetate]
> 25 µM
CCN1C[C@@H](Cc2ccc(Cl)c(Br)c2)C[C@@H]1C(=O)N[C@@H](C)C(=O)NCc1ccc(N)nc1C
> 25 µM

Item: C[C@H](NC(=O)[C@H](N)CCc1ccccc1Cl)C(=O)NCc1ccc(C(=N)N)cc1 Test system: UniProt:P00734 Read-out: Ki Value: ?
< 0.5 µM

Lab request: please report Ki under test system UniProt:P00734 for C[C@H](NC(=O)[C@@H](CCc1ccccc1)NCc1ccc(N2CCOCC2)cc1)C(=O)NCc1ccc(C(=N)N)cc1
< 0.5 µM

Notebook entry, UniProt:P00734 assay: Ki of C[C@H](NC(=O)[C@H](N)CCc1ccccc1)C(=O)NCc1ccc(CN)cc1 = ?
> 25 µM

Please state recorded Ki (tested on UniProt:P00734) of Cc1cc(Cl)cc(CNC(=O)[C@H](C)NC(=O)[C@H]2C[C@H](Cc3ccccc3)CN2)c1O [compound 1307, Hydrochloride]
> 25 µM

For the record Cc1nc(N)ccc1CNC(=O)[C@H](C)NC(=O)[C@H]1C[C@H](Cc2ccc(-c3nccs3)cc2)CN1 [compound 1361, Di-trifluoroacetate salt] , what value of Ki is listed for UniProt:P00734?
> 25 µM

Lab note: need Ki with UniProt:P00734 for entry Cc1nc(N)ccc1CNC(=O)[C@H](C)NC(=O)[C@H]1C[C@H](Cc2ccc(F)c(Cl)c2)CN1CCC(=O)O [compound 1473, Trifluoroacetate salt] , please look it up.
> 25 µM

###

Item-by-item account of Ki
# test target: mMASP-2 (Mus musculus (Mouse))
# Sequence (Q91WP0 20-685): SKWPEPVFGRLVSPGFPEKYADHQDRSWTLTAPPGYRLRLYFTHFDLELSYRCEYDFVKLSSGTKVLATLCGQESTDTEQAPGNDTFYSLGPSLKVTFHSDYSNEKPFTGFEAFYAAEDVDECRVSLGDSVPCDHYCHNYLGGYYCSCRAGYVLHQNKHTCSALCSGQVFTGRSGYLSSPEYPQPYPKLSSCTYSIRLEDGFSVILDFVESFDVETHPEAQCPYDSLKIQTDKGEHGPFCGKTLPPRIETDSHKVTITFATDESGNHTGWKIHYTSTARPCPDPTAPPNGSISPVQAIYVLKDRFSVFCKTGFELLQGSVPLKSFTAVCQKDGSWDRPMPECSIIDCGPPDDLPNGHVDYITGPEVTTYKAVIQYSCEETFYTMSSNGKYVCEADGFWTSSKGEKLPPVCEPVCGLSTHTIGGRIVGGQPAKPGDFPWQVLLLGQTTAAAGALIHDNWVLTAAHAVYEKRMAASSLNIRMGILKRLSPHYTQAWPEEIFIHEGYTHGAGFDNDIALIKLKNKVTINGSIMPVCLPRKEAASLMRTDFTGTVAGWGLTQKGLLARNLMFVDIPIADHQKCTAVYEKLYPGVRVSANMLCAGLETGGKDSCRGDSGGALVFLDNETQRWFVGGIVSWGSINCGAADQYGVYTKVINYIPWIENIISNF
# protocol text: Enzymatic inhibition of mMASP-2
# Format: biochemical
# assay context: read-out: mMASP-2 Ki
Counter-ions that a name gives are not always drawn.

Solved entries (count: 2):
C[C@H](NC(=O)[C@H]1C[C@H](Cc2ccc(-c3cccnc3)cc2)CN1)C(=O)NCc1cc(Cl)ccc1-n1cnnn1 [compound 1404, Hydrochloride]
< 500 nM
Cc1cc(Cl)cc(CNC(=O)[C@H](C)NC(=O)[C@H]2C[C@@H](Cc3ccccc3)CCN2)c1O [compound 1363, Hydrochloride]
< 500 nM

# input molecule: Cc1nc2cc(CNC(=O)[C@H](C)NC(=O)[C@H]3C[C@H](c4ccccc4)CN3)cc(Cl)c2[nH]1 [compound 1418, Trifluoroacetate salt] ; wanted: its Ki
10000 to 25000 nM

Reported Ki, molecule Cc1nc(N)ccc1CNC(=O)[C@H](C)NC(=O)[C@@H]1C[C@@H](Cc2ccccc2)CN1 : ____
> 25000 nM

Please give the measured Ki for this molecule: C[C@H](NC(=O)[C@H]1C[C@H](Cc2ccc3ccccc3c2)CN1)C(=O)NCc1cc(Cl)ccc1-n1cnnn1 [compound 1385, Trifluoroacetate salt]
< 500 nM

Entry C[C@H](NC(=O)[C@H]1C[C@H](c2ccccc2)CN1)C(=O)NCc1cc2cnccc2[nH]1 [compound 1463, Di-trifluoroacetate salt] has what Ki?
< 500 nM

###

# test target: human α-thrombin (Homo sapiens (Human), UniProt P00734)
# protocol text: Enzymatic assay for thrombin (Boc-VPR-AMC substrate)
# Type: biochemical
# assay context: read-out: Thrombin Ki
pKi: −log10 of the molar value. Counter-ions that a name gives are not always drawn.
// reported pKi per item

Some entries whose results are on file:
C[C@H](NC(=O)[C@H](N)Cc1csc2ccccc12)C(=O)NCc1ccc(C(=N)N)cc1
> 6.30
C[C@H](NC(=O)[C@H](N)CCc1ccccc1)C(=O)NCc1ccc(CN)nc1
< 4.60
Cc1cc(Cl)cc(CNC(=O)[C@H](C)NC(=O)[C@H]2CN(c3cccc4ccccc34)CCN2)c1O [compound 1317, Hydrochloride]
< 4.60
C[C@H](NC(=O)[C@@H](CCc1ccccc1)NCc1ccc(O)cc1)C(=O)NCc1ccc(C(=N)N)cc1 [compound 1140, Dihydrochloride]
> 6.30

For C[C@H](NC(=O)[C@H](N)CCCc1ccccc1)C(=O)NCc1ccc(C(=N)N)cc1 , what is its reported pKi?
> 6.30

###

# test target: MASP-2 (CCP1-CCP2-SP) (Homo sapiens (Human))
# protocol text: biochemical
# Type: biochemical
# assay context: read-out: MASP-2 Ki
pKi: −log10 of the molar value. Where a name gives a salt, the structure may show the parent alone.
# key: entry, value: pKi

Reported pKi, compound Cc1nc(N)ccc1CNC(=O)[C@H](C)NC(=O)[C@H]1C[C@H](Cc2cc3ccccc3s2)CN1 [compound 1458, Di-trifluoroacetate salt] : ____
> 6.30

Name the reported pKi value associated with the compound C[C@H](NC(=O)[C@H]1C[C@H](Cc2ccc(F)c(Cl)c2)CN1)C(=O)NCc1cnc2c(c1)c(Cl)cn2C [compound 1474, Trifluoroacetate salt]
> 6.30

Item under review: Cc1nc(N)ccc1CNC(=O)[C@H](C)NC(=O)[C@H]1C[C@H](C2(c3ccccc3)CC2)CN1 [compound 1481, Di-trifluoroacetate salt] . Reported pKi?
> 6.30

###

# test target: UniProt Q91WP0
# protocol text: Enzymatic inhibition of mMASP-2
# Type: biochemical
# assay context: read-out: mMASP-2 Ki
Structures can show the parent of a compound that is named as a salt.
# Lookup of reported Ki keyed by entry

Some entries whose results are on file:
Cc1nc(N)ccc1CNC(=O)[C@H](C)NC(=O)[C@H]1C[C@H](Cc2cc(Cl)ccc2Cl)CN1 [compound 1444, Dihydrochloride]
< 500 nM
C[C@H](NC(=O)[C@H]1C[C@H](Cc2ccc(-c3ccc(F)cc3C(N)=O)cc2)CN1)C(=O)NCc1cc(Cl)ccc1-n1cnnn1 [compound 1405, Hydrochloride]
500 to 2500 nM
C[C@H](NC(=O)[C@@H](CCc1ccccc1)NCc1ccc[nH]1)C(=O)NCc1ccc(C(=N)N)cc1 [compound 1128]
< 500 nM
C[C@H](NC(=O)[C@H](N)C1Cc2ccccc2C1)C(=O)NCc1ccc2c(N)nccc2c1 [compound 1088, Dihydrochloride]
< 500 nM
C[C@H](NC(=O)[C@H]1C[C@@H](Cc2ccccc2)CN1)C(=O)NCc1ccc(C(=N)N)cc1 [compound 1284]
< 500 nM

# query: Ki | item Cc1nc(N)ccc1CNC(=O)[C@H](C)NC(=O)[C@H]1C[C@H](Cc2cccc(C#N)c2)CN1 [compound 1429, Di-trifluoroacetate salt] | system: UniProt Q91WP0
< 500 nM

Please state recorded Ki (tested on UniProt Q91WP0) of C[C@H](NC(=O)[C@H]1C[C@H](Cc2ccccc2-c2ccccc2)CN1)C(=O)NCc1cc(Cl)ccc1-n1cnnn1 [compound 1402, Trifluoroacetate]
500 to 2500 nM

Write down the reported Ki of Cc1nc(N)ccc1CNC(=O)[C@H](C)NC(=O)[C@H]1C[C@H](Cc2cc(C(F)(F)F)cc(C(F)(F)F)c2)CN1 [compound 1424, Di-trifluoroacetate salt] , test system: UniProt Q91WP0.
500 to 2500 nM

Give Ki (UniProt Q91WP0) of the following molecule: Cc1nc(N)ccc1CNC(=O)[C@H](C)NC(=O)[C@H]1C[C@H](Cc2ccc(C)c3ccccc23)CN1 [compound 1479, Dihydrochloride]
< 500 nM

Test system UniProt Q91WP0; read-out Ki; what value for CCc1nc(N)ccc1CNC(=O)[C@H](C)NC(=O)[C@H]1C[C@H](c2ccccc2)CN1 [compound 1323, Dihydrochloride] ?
10000 to 25000 nM

What is its Ki for UniProt Q91WP0? Entry: COc1ccc2cc(C[C@@H]3CN[C@@H](C(=O)N[C@@H](C)C(=O)NCc4ccc(N)nc4C)C3)ccc2c1 [compound 1453, Dihydrochloride]
< 500 nM

Hi! What's the reported Ki for C[C@H](NC(=O)[C@H]1C[C@@H](c2cccc(CN)c2)CN1)C(=O)NCc1ccc(C(=N)N)cc1 [compound 1277] on UniProt Q91WP0?
< 500 nM

Request body: readout Ki, system UniProt Q91WP0, query Cc1nc(N)ccc1CNC(=O)[C@H](C)NC(=O)[C@H]1C[C@H](Cc2cc3ccccc3s2)CN1 [compound 1458, Di-trifluoroacetate salt] . Return the value.
< 500 nM

Hello, I am looking for reported Ki with UniProt Q91WP0 for C[C@H](NC(=O)[C@H]1C[C@H](c2ccccc2)CCN1)C(=O)NCc1ccc(C(=N)N)cc1 [compound 1485, Dihydrochloride] . Could you help?
< 500 nM

So what Ki did C[C@H](NC(=O)[C@H]1C[C@H](c2ccccc2)CN1)C(=O)NCc1ccc(C(=N)N)nc1 [compound 1272] get with UniProt Q91WP0?
< 500 nM

Record lookup: for UniProt Q91WP0, what Ki belongs to C[C@H](NC(=O)[C@H]1C[C@H](c2ccccc2)CN1)C(=O)NCc1cc(Cl)cc(C#N)c1 [compound 1386, Trifluoroacetate salt] ?
> 25000 nM

Notebook: pull reported Ki for UniProt Q91WP0, entry C[C@H](NC(=O)[C@H]1C[C@@H](c2cccc(C#N)c2)CN1)C(=O)NCc1ccc(C(=N)N)cc1 [compound 1278]
< 500 nM

Test system UniProt Q91WP0; read-out Ki; what value for C[C@H](NC(=O)[C@H]1C[C@H](c2ccccc2)CN1)C(=O)NCc1cnc2[nH]nc(Cl)c2c1 [compound 1384, Dihydrochloride] ?
> 25000 nM

# get_value(readout= Ki, system= UniProt Q91WP0) for Cc1nc(N)ccc1CNC(=O)[C@H](C)NC(=O)[C@H]1C[C@H](Cc2ccc(-c3ccc(F)cc3C#N)cc2)CN1 [compound 1396]
< 500 nM

Lab request: please report Ki under test system UniProt Q91WP0 for Cc1cccc(C[C@@H]2CN[C@@H](C(=O)N[C@@H](C)C(=O)NCc3cc(Cl)cc(C)c3O)C2)c1 [compound 1369, Hydrochloride]
< 500 nM

Any idea what Ki came out for COc1cccc(CC[C@@H](N)C(=O)N[C@@H](C)C(=O)NCc2ccc(C(=N)N)cc2)c1 [compound 1075] on UniProt Q91WP0?
< 500 nM

Query the reported Ki for UniProt Q91WP0; item: N=C(N)c1ccc(CNC(=O)[C@H](CCC(N)=O)NC(=O)[C@H](N)CCc2ccccc2)cc1 [compound 1335, Di-trifluoroacetate]
< 500 nM

Give the reported Ki for Cc1nc(N)ccc1CNC(=O)[C@H](C)NC(=O)[C@H]1C[C@H](Cc2ccc(C3CCC3)cc2)CN1 [compound 1379, Di-trifluoroacetate salt] (system: UniProt Q91WP0).
< 500 nM

Look up Ki with UniProt Q91WP0 for this molecule: Cc1cnc(NCCc2ccccc2)c(=O)n1CC(=O)NCc1cc(Cl)ccc1-n1cnnn1 [compound 1489]
500 to 2500 nM

What measured Ki is associated with CCN1C[C@@H](Cc2ccc(Cl)c(Br)c2)C[C@@H]1C(=O)N[C@@H](C)C(=O)NCc1ccc(N)nc1C [compound 1464] on UniProt Q91WP0?
< 500 nM
